biological target: D2 dopamine receptor (Rattus norvegicus (Rat), UniProt P61169); assay: Affinity on dopamine D2 receptor, competition with [3H] Spiperone; format: binding; design: concentration or dose not given beside the values
Sequence (P61169 whole entry): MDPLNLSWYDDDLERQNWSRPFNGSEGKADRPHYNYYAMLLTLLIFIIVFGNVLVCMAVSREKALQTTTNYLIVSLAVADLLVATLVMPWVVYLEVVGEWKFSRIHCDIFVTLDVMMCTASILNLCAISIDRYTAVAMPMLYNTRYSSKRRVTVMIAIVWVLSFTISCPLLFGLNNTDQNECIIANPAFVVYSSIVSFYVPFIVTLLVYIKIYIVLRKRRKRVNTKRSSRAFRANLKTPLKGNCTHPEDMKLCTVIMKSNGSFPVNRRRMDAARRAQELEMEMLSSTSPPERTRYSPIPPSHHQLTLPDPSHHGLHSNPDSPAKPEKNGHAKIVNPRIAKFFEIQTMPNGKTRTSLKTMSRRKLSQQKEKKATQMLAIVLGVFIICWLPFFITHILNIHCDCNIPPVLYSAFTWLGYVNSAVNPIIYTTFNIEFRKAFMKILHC
Class Criterion met: D2 receptor inhibition ratio (%) at least 40%. Class Criterion not met: D2 receptor inhibition ratio (%) below 40%.

Compound: COc1cc2c(cc1OC)CN1CCc3cc(OC)c(OC)cc3C1C2 (racemic) [DC037001]
Group label: Criterion not met

Can COc1cc2c(cc1O)[C@@H]1Cc3c(OC)ccc(OC)c3CN1CC2 [DC037030] be said to have D2 receptor inhibition ratio (%) at or above 40%?
Criterion met

Can COc1cc(OC)c2c(c1CO)C[C@H]1c3cc4c(cc3CCN1C2)OCO4 [DC037077] be said to have D2 receptor inhibition ratio (%) at or above 40%?
Criterion met

Can Cc1ccc(C)c2c1CC1c3cc4c(cc3CCN1C2)OCO4 (stereo not drawn) [DC037033] be said to have D2 receptor inhibition ratio (%) at or above 40%?
Criterion not met
